Experiment: Cytotoxicity (MTT) assay of single and dual combinatory drugs
Type: cell-based
Details: human, HYDROXYCHLOROQUINE-FAVIPIRAVIR series; 400 μg/mL; read-out: Cell Viability (%)
viability at 48 h, 400 μg/mL values for the molecules below.

| MOLECULE | viability at 48 h, 400 μg/mL, % |
| --- | --- |
| NC(=O)c1nc(F)c[nH]c1=O | 66.8 |
| CCN(CCO)CCCC(C)Nc1ccnc2cc(Cl)ccc12 (centres unmarked) [HCQ, Hydroxychloroquine] | 9.5 |

###

Test: Cytotoxicity (MTT) assay of single and dual combinatory drugs
Assay type: cell-based
Conditions: human, LOPIRITO-DOXYCYCLINE series; 2 μg/mL; read-out: Cell Viability (%)
REPORTED_METRIC: viability at 48 h, 2 μg/mL (%)

| COMPOUND | REPORTED_VALUE |
| --- | --- |
| C[C@H]1c2cccc(O)c2C(=O)C2=C(O)[C@]3(O)C(=O)C(C(N)=O)=C(O)[C@@H](N(C)C)[C@@H]3[C@@H](O)[C@@H]21 [DOXY, Doxycycline] | 104 |
